assay-summary: label from the status in PepcDB records
reported-metric: protein production

biopolymer-sequence	reported-metric	reported-result
ERYMQDFDLIFKELERWGPGSESDTLKALQKVPNKSMTLLEIGCGQGIATELFARHTDAMITAVDNEEFALKHLMEKMQQNGLEDKITTVCADMAKMPFETKSFDLIWSEGSAYIMGVQNALKAWKPLLSEDGVLVVSDLVWSTDKPSEGALSFWKKEYPDMVSVSERIKHAQQAGYEVIEHFSLSDAAWEAYYHPLIERLDTLKDKLIDSPVLIDFENEITAFKQRANEFDYEIFILRSR	protein production	failed
MKKSSILILIIICLVGCKKGSNETTITGEIKGLGTDTLYLYGMDELYDRIDTIYVENDKFSYTTSVDTITSAYLLLKNRIEYPVFLDKGNKIKIKGDTINLNFLTISGNIYNEEFTDFQKALEDPADPSEKAGEETVDKRITVEKANTAEEMAEEFILQHHSSYVSLYLLDKYFVQKETPDFSKIKKLVEVMTGVLQDKPYIERLNETITQAEKSEIGKYAPFFSLPNAKGEKITRSSDAFKQKSLLINFWASWNDSISQKQSNSELREIYKKYKKNKYIGMLGISLDVDKQQWKDAIKRDTLDWEQVCDFGGLNSEVAKQYSIYKIPANILLSSDGKILAKNLRGEELKKKIENIVEEATEKEKKNKQKK	protein production	failed
